Test system: LXRa homodimer (NR concentration 270 nM)
Experiment: PBM binding z-score (relative to random genomic background probes); higher = stronger binding; sequences stand for … in GC…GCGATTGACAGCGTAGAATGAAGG
The entries below come with measured PBM binding z-score values attached.
attribute.measured: PBM binding z-score

record.sequence | measurement.target | attribute.measured | measured.number
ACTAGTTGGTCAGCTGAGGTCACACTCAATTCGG | LXRa homodimer (NR concentration 270 nM) | PBM binding z-score | 2.29
TATACAGGATCAAAGGCCAGAGTACGAATGTCGA | LXRa homodimer (NR concentration 270 nM) | PBM binding z-score | -0.0452
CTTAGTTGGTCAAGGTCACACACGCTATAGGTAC | LXRa homodimer (NR concentration 270 nM) | PBM binding z-score | 2.15
CCGAGTAGGTTACGAGGGGGCCTTCAGTGCGAAT | LXRa homodimer (NR concentration 270 nM) | PBM binding z-score | 0.0596
CAAAGTAGGTCACCGGAAGGTCAAAGTCCGCATG | LXRa homodimer (NR concentration 270 nM) | PBM binding z-score | 5.29
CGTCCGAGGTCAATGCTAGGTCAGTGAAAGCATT | LXRa homodimer (NR concentration 270 nM) | PBM binding z-score | 2.78
CGAACTAGGTCAAAGGACAGGGAAAGGCGACGTA | LXRa homodimer (NR concentration 270 nM) | PBM binding z-score | -0.139
CCGAGTAGGTTACGAGGGCGCATTCAGTGCGAAT | LXRa homodimer (NR concentration 270 nM) | PBM binding z-score | -0.35
CGCACTAGGTCACCAGGACAGTGAAGAGGTTGGA | LXRa homodimer (NR concentration 270 nM) | PBM binding z-score | 0.256
GATTACGGGTCAAAGGTTATAGCATGAATAGAAT | LXRa homodimer (NR concentration 270 nM) | PBM binding z-score | 1.25
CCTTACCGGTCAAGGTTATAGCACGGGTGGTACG | LXRa homodimer (NR concentration 270 nM) | PBM binding z-score | 0.946
CGTCCAAGGTCAATTCTAGGTCAGTGAAAGCATT | LXRa homodimer (NR concentration 270 nM) | PBM binding z-score | 3.88
TCTCGGAGGACACGAAAGGTGAGAGCTCGACATC | LXRa homodimer (NR concentration 270 nM) | PBM binding z-score | -0.458
CGGACTAGGTCAAAGGACAGTGAAAGGCGACGTA | LXRa homodimer (NR concentration 270 nM) | PBM binding z-score | -0.041
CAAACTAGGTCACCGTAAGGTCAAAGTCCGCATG | LXRa homodimer (NR concentration 270 nM) | PBM binding z-score | 5.47
ATCGAAAGGTCGTGAAGTGAGTATACAGAAAGGC | LXRa homodimer (NR concentration 270 nM) | PBM binding z-score | 0.493
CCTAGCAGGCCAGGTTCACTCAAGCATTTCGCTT | LXRa homodimer (NR concentration 270 nM) | PBM binding z-score | -0.238
CGAACTAGGTCACCAGGACACTGAAGAGGTTGGA | LXRa homodimer (NR concentration 270 nM) | PBM binding z-score | 0.155
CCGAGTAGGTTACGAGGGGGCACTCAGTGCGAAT | LXRa homodimer (NR concentration 270 nM) | PBM binding z-score | 0.708
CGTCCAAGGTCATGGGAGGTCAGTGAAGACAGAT | LXRa homodimer (NR concentration 270 nM) | PBM binding z-score | 5.12
CCTACTGGGCCAAAGGTCCTTGATTCCAATGCTC | LXRa homodimer (NR concentration 270 nM) | PBM binding z-score | -0.404
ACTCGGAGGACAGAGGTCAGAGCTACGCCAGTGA | LXRa homodimer (NR concentration 270 nM) | PBM binding z-score | 0.56
ATCTCTAGGTAAAGTTCATTGAAAGATCGATAGA | LXRa homodimer (NR concentration 270 nM) | PBM binding z-score | 4.69
